Entry source: PubChem BioAssay (NCI)

experiment: NCI Yeast Anticancer Drug Screen. Data for the bub3 strain (AID 167); conditions: S. cerevisiae bub3 mutant strain, at 50.0 µM
The panel holds about 79,000 compounds, 15% with a hit somewhere; the sample as a whole holds those more often. Active and inactive are the calls of the source. Cut-off read from the data, not from the text of the source: active = growth inhibition above about 70%; inactive = the rest.
Outcomes: yes (active), no (inactive)

> print(dat)
                                   compound  assigned.category
1  CCCCCCCNC1CCCc2cc(OC)ccc21 (stereo unspecified)                 no
2  CCCOC1(C)CC(c2cc(OC)c(OC)c(OC)c2)c2cc3c(cc2O1)OCO3 (stereo unspecified)                 no
3        COc1ccc(C(O)(c2ccccc2)c2ccccc2)cc1                yes
4  C#CCCCCCOC(=O)c1cc([N+](=O)[O-])cc([N+](=O)[O-])c1                yes
5  O=C(SC(O)c1ccc(Cl)cc1)c1ccccc1 (stereo unspecified)                 no
6      O=C1c2ccccc2-c2nnc3c(c21)Cc1ccccc1C3                 no

---

assay: NCI Yeast Anticancer Drug Screen. Data for the mec2-1 strain (AID 157); conditions: S. cerevisiae mec2-1 strain, at 50.0 µM (retest, dose inferred, filed as 5.0)
The panel holds about 79,000 compounds, 15% with a hit somewhere; the sample as a whole holds those more often. Activity calls are given as the source filed them. Cut-off read from the data, not from the text of the source: active = growth inhibition above about 70%; inactive = the rest.
Outcomes: class 1 for active, class 0 for inactive

> print(dat)
                                    compound  assigned.category
 1                      CCCN1CSC(=S)N(CCC)C1            class 1
 2  COC(=O)c1nc(=S)[nH]c(C(=O)OC)c1C(=O)c1ccc([N+](=O)[O-])cc1            class 0
 3        COC(=O)/C=C1/OC(c2ccccc2)=C(C)C1=O            class 0
 4  CCOC(CC)C(O)(c1ccc(N(C)C)cc1)c1ccc(N(C)C)cc1 (stereo unspecified)            class 0
 5  Oc1c(Cl)cc(CN(Cc2cc(Cl)c(O)c(Cl)c2)C2CCCCC2)cc1Cl            class 1
 6  CCOC(=O)/C=C1/C(=O)OC2C1OC1OC(C)(C)OC12 (stereo unspecified)            class 1
 7  CC(C)(C)C(=O)CC(Cc1nccc2ccccc12)c1ccco1 (stereo unspecified)            class 1
 8     COc1ccc2ccc(/C=C/[N+](=O)[O-])cc2c1OC            class 1
 9  c1cc(Nc2ccc(Nc3ccc(CN4CCCCC4)cc3)cc2)ccc1CN1CCCCC1            class 1
10  CC(=O)Nc1ccc2c(c1)C(=Nc1ccc(F)cc1)c1ccccc1-2            class 1
11      C(=N\NC1=NCCN1)/c1cccc2cc3ccncc3nc12            class 0

---

Each record here notes measured growth inhibition.
Assay: NCI Yeast Anticancer Drug Screen. Data for the sgs1 mgt1 strain (AID 161);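 note: 0% = growth of cultures given vehicle only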
Conditions: S. cerevisiae sgs1 mgt1 strain, at 5.0 µM (retest, dose inferred, filed as 0.5), active compounds read high
Procedure: Growth inhibition of yeast strains with defined genetic alterations is measured as a screen for potential anti-cancer activity. Selected strains with alterations in DNA damage repair or cell cycle control were exposed to compounds and growth inhibition was measured relative to vehicle treated controls. The strain used in this assay is sgs1 mgt1
This is part of a sample that, as a whole, favours compounds with a hit. Of some 79,000 tested, about 15% had one in any assay.
EXPERIMENTAL ENDPOINT: growth inhibition (%)

> print(dat)
                                    compound  endpoint.unit  measured
 1  O=C(O)COc1c(Cl)c(Cl)c(Cl)c(Cl)c1Cl.[Cu+2]              %        42
 2  CC1CCCC(C(c2c[nH]c3ccccc23)c2c[nH]c3ccccc23)C1=O (stereo unspecified)              %         3
 3               CC(=O)N1CCCC2=C1CCCCCCCCCC2              %        -3
 4     O=S(=O)(Nc1ccccc1C(F)(F)F)c1ccc(F)cc1              %       -11
 5  O=C1N=c2ccc(Br)cc2=C1c1sc(=O)n(Cc2nc3ccccc3[nH]2)c1O              %        -2
 6  CCCCCCCCN(CCCCCCCC)CC(O)c1cc(-c2ccc(OC)cc2)nc2cc(Cl)ccc12 (stereo unspecified)              %        17
 7             CC(C)CCOc1ccc(/C=C\C(=O)O)cc1              %        -3
 8  Cc1ccccc1-n1c(N)c(-c2nc3ccccc3[nH]2)sc1=S              %        42
 9  CCOC(=O)C(NC(=O)c1ccccc1)[CH](c1ccc(OC)cc1)[Sn]([c]1ccccc1)([c]1ccccc1)[c]1ccccc1 (stereo unspecified)              %        38
10  CN(C)CCOC1(CC2CCCCC2)CCC(C(C)(C)C)CC1 (stereo unspecified)              %        -6
11  CC1CCC(=NNC(N)=O)CC1 (stereo unspecified)              %        -1

---

experiment: NCI Yeast Anticancer Drug Screen. Data for the bub3 strain (AID 167); conditions: S. cerevisiae bub3 mutant strain, at 50.0 µM, active compounds read high
The panel holds about 79,000 compounds, 15% with a hit somewhere; the sample as a whole holds those more often.
Values of growth inhibition greater than or equal to 90% map to Criterion met; values below map to Criterion not met.

> print(dat)
                                   compound  assigned.category
1           O=C1c2cc(Br)cc(Br)c2NCCC1(Br)Br      Criterion met
2  O=C(Nc1ccc(Cl)cc1Cl)C1C(=O)OC2(CCCCC2)OC1=O  Criterion not met
3  CCOC(=O)C(=N\Nc1c(C)cccc1C)/C(C)=N\NC(N)=S  Criterion not met
4    CC(C)SC(=S)Nc1ccc(Cl)c([N+](=O)[O-])c1      Criterion met
5  O=C1C2Nc3ccccc3SC2C(=O)N1c1ccccc1C(F)(F)F (stereo unspecified)  Criterion not met
6  COc1cccc(/C=N/NC(=O)c2c(-c3ccccc3)noc2C)c1O  Criterion not met

---

assay: NCI Yeast Anticancer Drug Screen. Data for the cln2 rad14 strain (AID 165);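 note: 0% = growth equal to vehicle treated cultures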; conditions: S. cerevisiae cln2 rad14 strain, at 50.0 µM, active compounds read high
Compounds without any hit were thinned out: in the full panel of roughly 79,000, 15% have a hit.

COMPOUND	ENDPOINT UNIT	growth inhibition
O=c1cc(N=Nc2ccc(Cl)c(Cl)c2)[nH]c(=O)[nH]1	%	89.5
CC1(C)OC(C(COC(=O)c2ccc([N+](=O)[O-])cc2)OS(=O)(=O)c2ccc([N+](=O)[O-])cc2)C(C(SCc2ccccc2)SCc2ccccc2)O1 (stereo not given)	%	7.75
c1ccc(-c2c3ccccc3cc3ccc4ccccc4c23)nc1	%	49.5
CCCCC(CC)(COC(C)=O)COC(C)=O	%	42.5
COc1ccccc1/C=N/Nc1nnc(N/N=C/c2ccccc2OC)c2ccccc12	%	97.3
CN(C)CCC(=O)c1ccco1	%	93.5
CC(C)(C)c1cc(C(c2cc3c(cc2O)OCO3)N2CCOCC2)cc(C(C)(C)C)c1O (stereo not given)	%	57.7
c1csc(CNCc2cccs2)c1	%	-23.4
CN(C)c1ccc(C2CC(C)(N3CCCC3)Oc3cc4c(cc32)OCO4)cc1 (stereo not given)	%	23.9
O=C(Nc1ccc(Cl)cc1)NS(=O)(=O)c1c(-c2ccccc2)oc2ccccc2c1=O	%	93.3

---

assay: NCI Yeast Anticancer Drug Screen. Data for the mlh1 rad18 strain (AID 175); details: S. cerevisiae mlh1 rad18 strain growth inhibition; at 50.0 µM (retest, dose inferred, filed as 5.0); active compounds read high
About 79,000 compounds went through this panel and 15% of them were active in at least one assay; those are over-represented in the sample as a whole.
EXPERIMENTAL ENDPOINT: growth inhibition (%)

> print(dat)
                                   compound  experimental.endpoint  endpoint.unit  measured
1  OC(CCl)c1ccc2ccc3c(c2c1)Nc1ccccc1S3 (stereo unspecified)      growth inhibition              %        86
2  C[C@@H]1CN(CC2COc3ccccc3O2)[C@@H](C)CN1CC1COc2ccccc2O1 (stereo partly specified)      growth inhibition              %        94
3                 COC(=O)CSc1nc2ccccc2[nH]1      growth inhibition              %      -119
4  CCOC(=O)C(NC(=O)c1ccccc1)[CH](c1ccc(OC)cc1)[Sn]([c]1ccccc1)([c]1ccccc1)[c]1ccccc1 (stereo unspecified)      growth inhibition              %        86
5    Nc1ncnc2c1c(-c1ccc(Cl)cc1)cn2-c1ccccc1      growth inhibition              %        76
6                     CCCCCCN(CCCCCC)CCCCCC      growth inhibition              %         3
